test: Intrinsic clearance in human liver microsomes assessed per mg of protein at 0.1 uM by LC-MS/MS analysis; type: ADME; conditions: read-out: CLH
measureName: microsomal CLint at 0.1 µM (µL/min/mg)
State the answer as a number, implicitly in µL/min/mg.

Take a look at these entries with their results.
testSmiles	quantityUnit	microsomal CLint at 0.1 µM
CNc1nc(NCCCN2CCOCC2)c2sc(-c3ccc(C(F)(F)F)cc3)cc2n1	µL/min/mg	72.4
CN(C)CCCNc1nc(N)nc2cc(-c3ccc(C(F)(F)F)cc3)sc12	µL/min/mg	16.9
CNc1nc(NC(C)(C)C)c2sc(-c3ccc(C(F)(F)F)cc3)cc2n1	µL/min/mg	14

Query: Which microsomal CLint at 0.1 µM is reported for this compound? CNc1nc(NC2CC2)c2sc(-c3ccc(C(F)(F)F)cc3)cc2n1
Reply: 25.2
